test.name: Cytotoxic activity assay, HepG2
experimental.conditions: human, HepG2 hepatocellular carcinoma cells
reported.endpoint: pIC50
// pIC50 here means minus log10 of the molar concentration (mol/L)

[in] # pIC50 lookup, item COc1cccc2c1C(=O)c1c(O)c3c(c(O)c1C2=O)C[C@@](O)(C(=O)CO)C[C@@H]3O[C@H]1C[C@H](N)[C@H](O)[C@H](C)O1
[out] 5.81

---

measured.on: HIV-1 protease (Human immunodeficiency virus type 1 group M subtype B, UniProt P04585)
Construct: HIV-1 PR is a 22 kDa dimeric aspartyl protease
test.name: Inhibition of HIV-1 protease activity
Square brackets hold non-standard residues; d marks the D form. Peptide text beside a SMILES is read from it. * marks the point of attachment. X1 = COc1ccc(C[C@H](N*)[C@@H](O)CC(=O)O)cc1; Sta = CC(C)C[C@H](N)[C@@H](O)CC(=O)O; Isobutyryl = CC(C)C(=O)*; Propionyl = CCC(=O)*
reported.endpoint: pIC50
// pIC50 here means minus log10 of the molar concentration (mol/L)

Example compounds with recorded pIC50:
| compound | measured.on | reported.endpoint | readout.number |
| --- | --- | --- | --- |
| CC(C)C[C@H](NC(=O)[C@@H](NC(=O)[C@@H](NC(=O)C(C)C)C(C)C)C(C)C)[C@@H](O)CC(=O)N[C@@H](C)C(=O)O [Compound 2, ^iBu-L-Val^1-L-Val^2-(3S,4S)-Sta-L-Ala] (Isobutyryl-VV[Sta]A-OH) | HIV-1 protease (Human immunodeficiency virus type 1 group M subtype B, UniProt P04585) | pIC50 | 5.50 |
| COc1ccc(C[C@H](NC(=O)[C@H](C)NC(=O)C[C@H](O)[C@H](CC(C)C)NC(=O)[C@@H](NC(=O)[C@@H](NC(=O)C(C)C)C(C)C)C(C)C)[C@@H](O)CC(=O)O)cc1 [Compound 1] (Isobutyryl-VV[Sta]A-X1) | HIV-1 protease (Human immunodeficiency virus type 1 group M subtype B, UniProt P04585) | pIC50 | 8.75 |
| CCC(=O)N[C@H](C(=O)N[C@H](C(=O)N[C@@H](CC(C)C)[C@@H](O)CC(=O)N[C@@H](C)C(=O)N[C@@H](CC(C)C)[C@@H](O)CC(=O)O)C(C)C)C(C)C [Compound 5, pepstatin Pr] (Propionyl-VV[Sta]A[Sta]-OH) | HIV-1 protease (Human immunodeficiency virus type 1 group M subtype B, UniProt P04585) | pIC50 | 7.65 |

[in] Write down the reported pIC50 of CCC(=O)N[C@H](C(=O)N[C@H](C(=O)N[C@@H](CC(C)C)[C@@H](O)CC(=O)N[C@@H](C)C(=O)N[C@@H](CC(C)C)[C@@H](O)CC(=O)OC)C(C)C)C(C)C [Compound 8, pepstatin Pr methyl ester] (Propionyl-VV[Sta]A[Sta]-OMe) , test system: HIV-1 protease (Human immunodeficiency virus type 1 group M subtype B, UniProt P04585).
[out] 6.86

---

measured.on: HIV-1 protease (Human immunodeficiency virus type 1 group M subtype B, UniProt P04585)
Construct: HIV-1 PR is a 22 kDa dimeric aspartyl protease
test.name: Inhibition of HIV-1 protease activity
Square brackets hold non-standard residues; d marks the D form. Peptide text beside a SMILES is read from it. * marks the point of attachment. Sta = CC(C)C[C@H](N)[C@@H](O)CC(=O)O; Isobutyryl = CC(C)C(=O)*
reported.endpoint: IC50

| compound | IC50 |
| --- | --- |
| CC(C)C[C@H](NC(=O)[C@H](C)NC(=O)C[C@H](O)[C@H](CC(C)C)NC(=O)[C@@H](NC(=O)[C@@H](NC(=O)C(C)C)C(C)C)C(C)C)[C@@H](O)CC(=O)O [Compound 6, pepsinostreptin] (Isobutyryl-VV[Sta]A[Sta]-OH) | 9.9 nM |
| COC(=O)C[C@H](O)[C@H](CC(C)C)NC(=O)[C@H](C)NC(=O)C[C@H](O)[C@H](CC(C)C)NC(=O)[C@@H](NC(=O)[C@@H](NC(=O)C(C)C)C(C)C)C(C)C [Compound 9, pepsinostreptin methyl ester] (Isobutyryl-VV[Sta]A[Sta]-OMe) | 782 nM |
| COC(=O)C[C@H](O)[C@H](CC(C)C)NC(=O)[C@H](C)NC(=O)C[C@H](O)[C@H](CC(C)C)NC(=O)[C@@H](NC(=O)[C@@H](NC(C)=O)C(C)C)C(C)C [Compound 7, pepstatin Ac methyl ester] (Ac-VV[Sta]A[Sta]-OMe) | 203 nM |

Proceed to the following item.
[in] # IC50 lookup, item CC(C)CCCCC(=O)N[C@H]1CCN(CC(=O)O)C1=O
[out] > 10000 nM
